system: MCF7; test: NCI tumour cell line growth inhibition, 48 h
Calls of active or inactive are those of the source. Cut-off read from the data, not from the text of the source: active = GI50 up to about 1.1 µM and inactive = higher.
Valid outcomes are listed here; reply with one: t for active, f for inactive

Problem: Recorded call for O=C1Nc2ccccc2/C1=C1/Nc2ccccc2/C1=N\OCCOC1OCC(O)C(O)C1O (centres undefined) ?
Result: f

Problem: Recorded call for CN(Cc1nc2c(N)nc(N)nc2nc1N)c1ccc(C(=O)NC(CCC(=O)O)C(=O)O)cc1 (centres undefined) ?
Result: t

Problem: Recorded call for COC1C(O)=C2C(=O)OC(C)(O)/C=C/C=C\C=C/C=C/C(c3ccccc3)NC(=O)/C=C/C=C/C=C/C=C/C2(C)C1O (centres undefined) ?
Result: t

Problem: Recorded call for COC(=O)C1CCC(=S)N1C(C)=O (centres undefined) ?
Result: f

Problem: Recorded call for "O=c1c2ccccc2nc(N/N=C/c2ccc([N+](=O)[O-])cc2)n1-c1ccccc1" ?
Result: f

Problem: Recorded call for "CC(CCN)(CCN)[N+](=O)[O-]" ?
Result: f

Problem: Recorded call for "O=[N+]([O-])c1ccc(S[C@@H]2[C@H]3c4c(-c5ccccc5)[nH]c(-c5ccccc5)c4[C@@H]2C[C@H]3Cl)cc1" ?
Result: f

Problem: Recorded call for "NCCCCNOCCCN" ?
Result: f

Problem: Recorded call for "O[C@H]1[C@@H]2OC[C@@H](O)[C@H](OCc3ccccc3)[C@@](COCc3ccccc3)(O2)[C@@H]1OCc1ccccc1" ?
Result: f

* * *

test system: HOP-18; experiment: NCI tumour cell line growth inhibition, 48 h
Activity calls are given as the source filed them. Cut-off read from the data, not from the text of the source: active = GI50 up to about 1.1 µM and inactive = higher.
Assignment: determine reported GI50 for the given compounds.

Noted for "Cn1c(=O)c(C(c2ccccc2)c2c(O)c3ccccc3n(C)c2=O)c(O)c2ccccc21" : its GI50 reads > 100 µM (inactive)

Noted for COc1ccc(C(=O)C(C(=O)CCC(=O)Nc2cccc(Cl)c2)c2ccc(OC)cc2)cc1 (stereo unspecified) : its GI50 reads 53.3 µM (inactive)

Noted for "CC(C)c1cccc(=O)c(O)c1" : its GI50 reads 1.4 µM (inactive)

Noted for COC(=O)CC1CC2(C(=O)OC)c3[nH]c4ccccc4c3CCN2C1=O (stereo unspecified) : its GI50 reads > 100 µM (inactive)

Noted for "Cc1cc2c(cc1C)[n+]([O-])c(C(=O)C/C(=N/OCCCc1ccccc1)C(=O)Nc1cc(Cl)ccc1Cl)c(C)[n+]2[O-]" : its GI50 reads > 100 µM (inactive)

Noted for "Cc1ccc(SSCCCCS(=O)O)cc1" : its GI50 reads 41.9 µM (inactive)

Noted for "Cc1cccc2cc3cccc(C(=O)NCCN(C)C)c3nc12" : its GI50 reads 0.399 µM (active)

Noted for "CSC(=S)N(C)NC(=O)c1cccc(C(=O)NN(C)C(=S)SC)n1" : its GI50 reads 78.5 µM (inactive)

Noted for "O=C1C=Cc2c(-c3ccccc3)oc3cccc1c23" : its GI50 reads 15 µM (inactive)

Noted for "O=C1CCNC(=O)NC1" : its GI50 reads > 100 µM (inactive)

Noted for "Cc1cc(Br)ccc1/N=N/c1c(C)nn(-c2ccccc2)c1-c1ccccc1" : its GI50 reads > 100 µM (inactive)

* * *

tested on: M19-MEL; experiment: NCI tumour cell line growth inhibition, 48 h
The source made the active and inactive calls. Rule as the data show it: active = GI50 up to about 1.1 µM and inactive = higher.
QUANTITY MEASURED: GI50

Noted for "C/C=C/COC(=O)CO[N+](=O)[O-]" : its GI50 reads > 100 µM (inactive)

Noted for Cc1cccc(NC(=O)C(=O)C(C2OC(=O)c3ccccc32)[N+](=O)[O-])c1C (configuration not stated) : its GI50 reads 1.87 µM (inactive)

Noted for "O=C(Cc1nc2ccccc2s1)C(=O)Nc1ccccc1C(F)(F)F" : its GI50 reads > 100 µM (inactive)

Noted for CCN1C(=O)N(C)C(O)c2c1nc1ccccn1c2=O (configuration not stated) : its GI50 reads 28.4 µM (inactive)

Noted for CCCCCCCCCCCCCCCCCCN(C)CC(COP(=O)([O-])OCC[N+](C)(C)C)OC (configuration not stated) : its GI50 reads 4.21 µM (inactive)

Noted for CC(=O)OC1C/C(C)=C/CCC(C)/C=C/C2(C)CCC(C(C)(C)O)C12 (configuration not stated) : its GI50 reads 28.9 µM (inactive)

Noted for CS(=O)(=O)OC1CCC2(C#N)CCC1C2=O (configuration not stated) : its GI50 reads > 100 µM (inactive)

Noted for "CCOC(=N)CC(=O)Nc1ccccc1" : its GI50 reads > 46.5 µM (inactive)

Noted for "Cc1nc2c(C)c3c([nH]c4ccc(Cl)cc43)c(C)c2c(O)c1C" : its GI50 reads 6.18 µM (inactive)

Noted for CC1(S)CC2C(CC1Sc1ccccc1)C2(C)C (configuration not stated) : its GI50 reads > 100 µM (inactive)

Noted for "COc1cc(/C=C/c2cccnc2)cc(OC)c1OC" : its GI50 reads > 100 µM (inactive)

Noted for "Nc1nc(O)c2nc(N)n(Cc3ccccc3)c2n1" : its GI50 reads > 100 µM (inactive)
